Item-by-item account of NADPH fluorescence slope
tgt: Voltage-gated potassium channel subunit beta-2 (Rattus norvegicus)
experimentalDetails: KvBeta positive modulators, primary screen, biochemical, NADPH fluorescence (AID 623);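 also: fluorescence intensity change per second fitted from 20 to 320 s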
appliedConditions: Recombinant KvBeta, NADPH fluorescence decrease slope, 10 min; at 10 µM; active compounds read low
Provide a numeric answer; units are not to be included.

Study these solved cases before continuing.
molecule=CCn1cc(C(=O)O)c(=O)c2cc(F)c(N3CCNCC3)nc21 observedproperty="NADPH fluorescence slope" measvalue=-5.7e-05
molecule=c1csc(-c2nn3c(C4CCCCC4)nnc3s2)c1 observedproperty="NADPH fluorescence slope" measvalue=-0.00015
molecule=O=C(c1ccc2c(c1)OCCO2)N1CCCCC1 observedproperty="NADPH fluorescence slope" measvalue=1.1e-06
molecule="NC(Cc1ccc(Oc2ccc(O)cc2)cc1)C(=O)O (centres undefined)" observedproperty="NADPH fluorescence slope" measvalue=-5.7e-05
molecule="CN1CCCN=C1COC(=O)C(O)(c1ccccc1)C1CCCCC1 (centres undefined)" observedproperty="NADPH fluorescence slope" measvalue=-1.3e-05
molecule=O=C(O)c1ccc(OCCn2ccnc2)cc1 observedproperty="NADPH fluorescence slope" measvalue=-0.000213

Ask | Looking for the measured NADPH fluorescence slope of C=CCn1c(SCC(=O)NC23CC4CC(CC(C4)C2)C3)nc(O)cc1=O , can you help?
Reply | -4.2e-05

Ask | Looking for the measured NADPH fluorescence slope of Cc1ccc(N2C(=O)C3ON(c4ccccc4)C(c4ccncc4)C3C2=O)cc1 (centres undefined) , can you help?
Reply | -0.000456

Ask | Looking for the measured NADPH fluorescence slope of Cc1cc(C)nc(CC(N)=O)n1 , can you help?
Reply | -4e-05

Ask | Looking for the measured NADPH fluorescence slope of O=C1CCC(=O)N1CN(C(=O)c1ccco1)c1ccc(Cl)c(Cl)c1 , can you help?
Reply | -2.3e-05

Ask | Looking for the measured NADPH fluorescence slope of COc1ccc(Cl)cc1N=Cc1c(O)cc(C)oc1=O , can you help?
Reply | -0.0002

Ask | Looking for the measured NADPH fluorescence slope of CCOC(=O)N1CC=C2C(C#N)=C(N)C(C#N)(C#N)[C@H](c3cccs3)[C@H]2C1 , can you help?
Reply | -2e-05

Ask | Looking for the measured NADPH fluorescence slope of C=CCc1cccc(/C=N/c2ncn[nH]2)c1O , can you help?
Reply | -0.000107

Ask | Looking for the measured NADPH fluorescence slope of CCOc1c(C)cc2[nH]c(CCC(=O)O)nc2c1C , can you help?
Reply | -3.6e-05

* * *

experimentalDetails: inhibitors of Chlamydomonas gravitaxis, primary screen, whole organism, Chlamydomonas reinhardtii, WT vs cilia-less mutant, absorbance, 96-well (AID 463189);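 also: 0% = wild type cc124 cells in DMSO and 100% = ciliumless bld1 mutant cells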
appliedConditions: OD600 absorbance, 2 days, at 10 µM, active compounds read high
Calls of active or inactive are those of the source.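 How the source made its calls: active means inhibition at or above 50% relative to wild type and mutant plate controls; inactive means inhibition below 50%.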
Item-by-item account of inhibition

Study these solved cases before continuing.
compound=CCCc1nc(NC2CCCCC2)c(C#N)c2c1COC(C)(C)C2 observedproperty=inhibition measvalue="-12.9% (inactive)"
compound=CCC(NC(=O)Nc1cc(OC)c(OC)c(OC)c1)(C(F)(F)F)C(F)(F)F observedproperty=inhibition measvalue="8.7% (inactive)"
compound="Cc1ccc(/C(O)=C2/C(=O)C(=O)N(Cc3ccco3)C2c2cccs2)cc1 (stereo unspecified)" observedproperty=inhibition measvalue="-4.07% (inactive)"
compound=CCCCCCC(=O)N1CCN(c2cc3c(cc2F)c(=O)c(C(=O)O)cn3CC)CC1 observedproperty=inhibition measvalue="4.18% (inactive)"

Ask | Looking for the measured inhibition of CCCCc1nc2n[nH]c(N)c2c2c1CCCC2 , can you help?
Reply | 10.9% (inactive)

Ask | Looking for the measured inhibition of Cn1nccc1C(=O)Nc1ccccc1C(=O)O , can you help?
Reply | 15.5% (inactive)

Ask | Looking for the measured inhibition of CC(C)C1Cc2c(C#N)c(N)sc(=S)c2CO1 (stereo unspecified) , can you help?
Reply | 27.2% (inactive)

Ask | Looking for the measured inhibition of N#CCCn1cnc2c(=S)nc[nH]c21 , can you help?
Reply | -4.04% (inactive)

Ask | Looking for the measured inhibition of CN(Cc1ccccc1)Cc1c[nH]c2ccccc12 , can you help?
Reply | 22.7% (inactive)

Ask | Looking for the measured inhibition of CCSc1nnc(N(CCC#N)CCC#N)s1 , can you help?
Reply | -11.4% (inactive)

Cited source for all entries: PubChem BioAssay
